biological target: FGFR4 (GST-FGFR4(388-802)) (Homo sapiens (Human), UniProt P22455); experiment: In-vitro biochemical kinase assay for FGFR4 (Caliper microfluidic mobility shift); settings: biochemical FGFR4 assay; read-out: Biochemical IC50
Sequence (P22455 388-802): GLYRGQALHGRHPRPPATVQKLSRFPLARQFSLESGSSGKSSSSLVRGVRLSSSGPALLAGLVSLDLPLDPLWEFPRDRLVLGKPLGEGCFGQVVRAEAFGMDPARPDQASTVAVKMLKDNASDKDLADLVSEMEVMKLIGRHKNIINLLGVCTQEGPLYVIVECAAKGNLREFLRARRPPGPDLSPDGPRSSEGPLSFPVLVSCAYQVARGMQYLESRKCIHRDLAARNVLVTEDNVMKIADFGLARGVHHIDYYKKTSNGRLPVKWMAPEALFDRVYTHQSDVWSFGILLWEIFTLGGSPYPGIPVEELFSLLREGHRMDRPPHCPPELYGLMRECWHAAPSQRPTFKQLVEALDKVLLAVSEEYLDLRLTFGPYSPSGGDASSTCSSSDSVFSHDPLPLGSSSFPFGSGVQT
endpointLabel: IC50 (nM)
Field: numeric (nM). Do not append units.

// below: answered compounds
COCCNc1cc(NC(=O)N2CCCc3cc(CN4CCCC4=O)c(C=O)nc32)ncc1C#N = 1.1
CC(C)Nc1cc(NC(=O)N2CCCc3cc(CO)c(C=O)nc32)ncc1C#N = 2
CC(=O)N(C)Cc1cc2c(nc1C=O)N(C(=O)Nc1cc(OC(C)C)c(C#N)cn1)CCC2 = 1.5
CCN1CCN(Cc2cc3c(nc2C=O)N(C(=O)Nc2cc(NCCOC)c(C#N)cn2)CCC3)C(=O)C1 = 1.6

Exam item: Check the records and state IC50 for COCCNc1cc(NC(=O)N2CCCc3cc(CN4CC[C@@H](N(C)C)C4=O)c(C=O)nc32)ncc1C#N
Marked response: 1.6
